Hello, the source for this data is paper PMC5540273, in case you need it.

- System: DCAMKL3
- Construct: gene DCLK3
- settings: concentration: 1 μM, replicates: in singlicate; n = 1;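 also: KINOMEscan kinase panel screen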
metric: %Inh
# output: number + unit

Worked cases, answers included:
- CCC(=O)c1c(-c2ccccc2)c2cc(Cl)ccc2c(=O)n1Cc1cc(S(C)(=O)=O)n(CCC(C)(C)O)n1: 21%
- COc1cc2nccc(Nc3cccc(Oc4ccccc4)c3)c2cc1OC.Cl: 23%
- Cc1nn2c(=O)cc(N3CCOCC3)nc2n1Cc1cccc(Cl)c1Cl: 7%
- Nc1ncnc2c1ncn2-c1cccc(F)c1: 0%
- O=C(NCc1cccs1)c1cc(C(=O)c2c(Cl)cccc2Cl)c[nH]1: 2%

Data request: Let me know recorded %Inh for `COc1cccc(C2=C(N(C)c3ccccc3)C(=O)NC2=O)c1` , thanks.
Data returned: 16%

Data request: State its %Inh for this compound: `Cc1c(Cn2c(C)nn3c(=O)cc(N4CCO[C@H](C)C4)nc23)cccc1C(F)(F)F`
Data returned: 11%

Data request: Note %Inh for the compound shown: `CCC(=O)c1c(-c2ccccc2)c2cc(Cl)ccc2c(=O)n1Cc1cc(S(C)(=O)=O)n(CC(N)=O)n1`
Data returned: 0%

Data request: Respond only with %Inh recorded for `FC(F)(F)c1ccc(-c2ncn(CCCN3CCOCC3)c2-c2ccncc2)cc1`
Data returned: 4%

====

- Tested on: CHEK2
- settings: concentration: 1 μM, replicates: in singlicate; n = 1
Documented %Inh across a set of compounds
Give your result in % as a bare value.

Worked cases, answers included:
- COc1cccc(C2=C(N(C)c3ccccc3)C(=O)NC2=O)c1: 0
- COC(=O)c1c(-c2ccccc2)c2cc(Br)ccc2c(=O)n1Cc1ccc(NC(=O)CCC(=O)O)cc1: 25
- COc1ccc(-n2cnc3c(N)ncnc32)cc1: 0
- COc1cc(OC)cc(-c2cc3cnc(N)nc3nc2NC(=O)NC(C)(C)C)c1: 10

Data request: Tell me %Inh reported for `CCC(=O)c1c(-c2ccccc2)c2cc(Cl)ccc2c(=O)n1Cc1cc(S(C)(=O)=O)n(CC(N)=O)n1`
Data returned: 0

====

- Tested on: PDGFRB
- settings: concentration: 1 μM, replicates: in singlicate; n = 1
metric: %Inh (%)
Answer with a number only, understood to be in %.

Here's what some known entries look like.
* Nc1ncnc2c1ncn2-c1ccc(Cl)cc1 [AH2635] | 86
* Nc1ncnc2c1ncn2-c1cccc(F)c1 [SKF-97560] | 58
* COC(=O)c1c(-c2ccccc2)c2cc(C)ccc2c(=O)n1Cc1ccccc1 | 90

Data request: // fetch %Inh for `COc1ccc(-c2cc3c(C)nc(N)nc3n([C@H]3CC[C@H](O)CC3)c2=O)cn1` ; system: PDGFRB
Data returned: 0

Data request: Please respond with reported %Inh (system PDGFRB) for `CCC(=O)c1c(-c2ccccc2)c2cc(Cl)ccc2c(=O)n1Cc1cc(S(C)(=O)=O)n(CC(F)F)n1` .
Data returned: 0

Data request: Param request: %Inh | system PDGFRB | item Nc1nc(N)c2nc(-c3ccccc3)[nH]c2n1 [SKF-12778]
Data returned: 14

Data request: Report %Inh under test system PDGFRB for COc1cc2ncn(-c3cc(OCc4ccc(S(C)(=O)=O)cc4)c(C(N)=O)s3)c2cc1OC [GW869979] .
Data returned: 11

Data request: Answer briefly: %Inh recorded on PDGFRB for COc1cc(Nc2ccnc3ccc(C(F)(F)F)cc23)cc(OC)c1OC [GW577382]
Data returned: 36

Data request: Find %Inh for O=C(Nc1n[nH]c2nc(-c3ccccc3)c(Cl)cc12)C1CC1 [SB-734909] on PDGFRB and write it down.
Data returned: 97
